target: PAK4 (Homo sapiens, UniProt O96013); construct: kinase domain; experiment: Z'-LYTE FRET peptide kinase assay with recombinant enzyme
Sequence (O96013 291-591 limits assumed): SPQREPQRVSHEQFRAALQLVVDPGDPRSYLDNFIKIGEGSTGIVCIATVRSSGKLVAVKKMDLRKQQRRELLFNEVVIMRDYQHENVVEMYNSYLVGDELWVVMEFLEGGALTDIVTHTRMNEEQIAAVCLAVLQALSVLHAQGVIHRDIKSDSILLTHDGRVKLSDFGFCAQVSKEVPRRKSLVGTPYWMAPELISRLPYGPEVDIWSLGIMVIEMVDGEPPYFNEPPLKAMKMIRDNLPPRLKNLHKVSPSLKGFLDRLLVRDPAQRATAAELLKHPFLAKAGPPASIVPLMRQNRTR
readout: pKi
Quick note: pKi values are minus log10 of concentrations in mol/L.

Query :: Please look up its pKi: CCn1c(=O)c(-c2ccc(-c3cncc(C)n3)cc2Cl)cc2cnc(NCCC3CCN(C)CC3)nc21 [FRAX1036]
Result :: 5.62
